Cited source for all entries: ChEMBL document CHEMBL4831527

Assay method text: Selectivity index, ratio of CC50 for mock-infected human MT4 cells to EC50 for HIV1 3B infected in human MT4 cells
Assay type: toxicity, cell-based
Assay conditions: MT4 cells (mock-infected and HIV1 3B infected), read-out: Ratio CC50/EC50
I'd appreciate it if you could supply selectivity ratio values for the items below.

Example entries begin here.
- Cc1cc(C#N)cc(C)c1Oc1nc(Nc2ccc(C#N)cc2)nc2c1CCCC2: 298
- O=C1Nc2ccc(Cl)cc2[C@@](C#CC2CC2)(C(F)(F)F)O1: > 1390

Here is the next item to consider.
Endpoint output: selectivity ratio of Cc1cc(C#N)cc(C)c1Oc1nc(Nc2ccc(S(C)(=O)=O)cc2)nc2c1CCCC2 . Value?
> 4920
